Reference source for all entries: patent US6599893B2

system: S. aureus strain Smith; test: Experimental infection of mice, ED50; type: in vivo, Swiss-Webster mice; settings: 50% efficacious dose, S. aureus Smith, mice challenged intraperitoneally, compound subcutaneously at 0 and 2 h, total dose, 72 h survival
# ED50, mg/kg (95% C.I.) values compiled below

compound | ED50, mg/kg (95% C.I.)
Nc1nc(/C(=N/O)C(=O)N[C@@H]2C(=O)N3C(C(=O)O)=C(Sc4ccncc4CSc4ccncc4)CS[C@H]23)c(Cl)s1 | >5 mg/kg
Nc1nc(/C(=N/O)C(=O)N[C@@H]2C(=O)N3C(C(=O)O)=C(Sc4ccncc4CSCCNC=O)CS[C@H]23)c(Cl)s1 | 2.27 (1.0-5.5) mg/kg
Nc1nnc(SCc2cnccc2SC2=C(C(=O)O)N3C(=O)[C@@H](NC(=O)/C(=N\O)c4nc(N)sc4Cl)[C@H]3SC2)s1 | 0.38 (01-0.7) mg/kg
NCCSCc1cnccc1SC1=C(C(=O)O)N2C(=O)[C@@H](NC(=O)/C(=N\O)c3nc(N)sc3Cl)[C@H]2SC1 [RWJ 54428, reference compound] | 1.0 (0.7-1.6) mg/kg
Nc1nc(/C(=N/O)C(=O)N[C@@H]2C(=O)N3C(C(=O)O)=C(Sc4ccncc4CSc4cccnc4N)CS[C@H]23)c(Cl)s1 | >5 mg/kg
NC(=O)CSCc1cnccc1SC1=C(C(=O)O)N2C(=O)[C@@H](NC(=O)/C(=N\O)c3nc(N)sc3Cl)[C@H]2SC1 | 1.15 (0.7-1.6) mg/kg
